Cited source for all entries: ChEMBL document CHEMBL1212917

Listed below: TGI values for each entry.
- Tested on: NSCLC
- test-details: Growth inhibition of human NSCLC cells after 48 hrs
- Assay type: functional
Give the quantity in µM, number only.

Challenge: // fetch TGI given entry "COc1cc2c(/C=C3/C(=O)N(C)c4ccc(O)cc43)c[nH]c2cc1C"
Response given: 21.9

Challenge: // fetch TGI given entry "Cc1cc2c(cc1O)/C(=C\c1c(Cl)[nH]c3c1ccc1ccccc13)C(=O)N2"
Response given: 30.2

Challenge: // fetch TGI given entry "COc1cc2c(/C=C3/C(=O)N(C)c4ccccc43)c[nH]c2cc1C"
Response given: 66.1

Challenge: // fetch TGI given entry "COc1cc2c(cc1C)NC(=O)/C2=C/c1c[nH]c2ccccc12"
Response given: 43.6

Challenge: // fetch TGI given entry "CN(C)c1ccc2[nH]c(Cl)c(/C=C3/C(=O)N(C)c4ccc(O)cc43)c2c1"
Response given: 46.8
